biological target: Prostaglandin G/H synthase 2 (Homo sapiens); assay: Inhibition of human recombinant COX2 expressed in insect Sf9 cells by enzyme immunoassay
Sequence (P35354 whole entry): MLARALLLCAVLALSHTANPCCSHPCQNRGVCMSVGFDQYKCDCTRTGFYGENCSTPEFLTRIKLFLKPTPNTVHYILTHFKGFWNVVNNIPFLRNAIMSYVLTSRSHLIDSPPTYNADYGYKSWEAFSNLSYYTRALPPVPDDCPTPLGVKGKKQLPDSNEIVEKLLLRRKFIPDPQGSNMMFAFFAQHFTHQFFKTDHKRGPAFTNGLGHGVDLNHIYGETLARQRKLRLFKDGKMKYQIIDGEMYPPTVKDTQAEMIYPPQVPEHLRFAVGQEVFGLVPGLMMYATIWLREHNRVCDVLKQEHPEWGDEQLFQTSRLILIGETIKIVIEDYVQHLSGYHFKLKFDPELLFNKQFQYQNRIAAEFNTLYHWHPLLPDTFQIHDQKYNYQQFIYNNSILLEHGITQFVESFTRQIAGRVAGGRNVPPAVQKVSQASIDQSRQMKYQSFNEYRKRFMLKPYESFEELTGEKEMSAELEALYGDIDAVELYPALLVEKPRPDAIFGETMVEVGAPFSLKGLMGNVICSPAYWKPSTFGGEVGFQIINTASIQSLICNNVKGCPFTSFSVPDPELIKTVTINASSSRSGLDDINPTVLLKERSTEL
quantity_name: IC50 (nM)

O=[N+]([O-])c1ccc2c(c1)S(=O)(=O)N=S2c1ccc(Br)cc1 (stereo unspecified) :: 1700

----------
test system: THP-1; assay: Antiinflammatory activity in human THP1 cells assessed as inhibition of LPS-induced TNFalpha release by ELISA; type: functional, cell-based
quantity_name: IC50 (nM)

O=[N+]([O-])c1ccc2c(c1)S(=O)(=O)N=S2c1ccc(Br)cc1 (stereo unspecified) :: 440

----------
biological target: Prostaglandin G/H synthase 1 (Mus musculus, UniProt P22437); test: Inhibition of COX1 in mouse RAW264.7 cells by enzyme immunoassay
Sequence (P22437 whole entry): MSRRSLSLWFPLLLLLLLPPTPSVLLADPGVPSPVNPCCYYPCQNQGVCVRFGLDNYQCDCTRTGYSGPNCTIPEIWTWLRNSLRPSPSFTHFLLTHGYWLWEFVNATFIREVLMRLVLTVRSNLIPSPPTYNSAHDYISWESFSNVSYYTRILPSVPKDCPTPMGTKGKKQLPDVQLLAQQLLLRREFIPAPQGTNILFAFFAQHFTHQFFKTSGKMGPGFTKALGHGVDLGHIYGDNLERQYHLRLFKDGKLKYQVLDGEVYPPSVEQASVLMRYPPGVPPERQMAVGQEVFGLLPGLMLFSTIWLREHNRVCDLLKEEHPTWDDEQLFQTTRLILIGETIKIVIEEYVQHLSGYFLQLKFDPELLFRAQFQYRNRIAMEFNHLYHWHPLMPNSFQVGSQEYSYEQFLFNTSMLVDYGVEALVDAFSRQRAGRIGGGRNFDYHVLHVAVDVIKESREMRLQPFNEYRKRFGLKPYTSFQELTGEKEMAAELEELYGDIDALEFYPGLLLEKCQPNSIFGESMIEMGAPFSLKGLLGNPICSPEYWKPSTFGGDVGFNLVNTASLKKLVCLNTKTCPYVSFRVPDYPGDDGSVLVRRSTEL
pIC50: −log10 of the molar value.
quantity_name: pIC50

O=[N+]([O-])c1ccc2c(c1)S(c1ccc(Br)cc1)=NS2(=O)=O (centres undefined) :: 5.82
COc1ccc2c(c1)c(CC(=O)NCCc1ccccc1)c(C)n2C(=O)c1ccc(Cl)cc1 :: 4.25
O=[N+]([O-])c1ccc2c(c1)S(=O)(=O)N=S2c1ccc(Br)cc1 (centres undefined) :: 5.68
CS(=O)(=O)Nc1ccc([N+](=O)[O-])cc1OC1CCCCC1 :: 4.20
